target: Rezeptorsubtyp M₃ (Rattus norvegicus); construct: Tränendrüse; from tissue; host or cells: lacrimal gland; assay: Muscarinic receptor binding study, M₃ subtype, lacrimal gland, [³H]N-methylscopolamine; settings: Organ Tränendrüse, [³H]Ligand N-Methylscopolamin, kind of constant not stated
Sequence (P08483 whole entry): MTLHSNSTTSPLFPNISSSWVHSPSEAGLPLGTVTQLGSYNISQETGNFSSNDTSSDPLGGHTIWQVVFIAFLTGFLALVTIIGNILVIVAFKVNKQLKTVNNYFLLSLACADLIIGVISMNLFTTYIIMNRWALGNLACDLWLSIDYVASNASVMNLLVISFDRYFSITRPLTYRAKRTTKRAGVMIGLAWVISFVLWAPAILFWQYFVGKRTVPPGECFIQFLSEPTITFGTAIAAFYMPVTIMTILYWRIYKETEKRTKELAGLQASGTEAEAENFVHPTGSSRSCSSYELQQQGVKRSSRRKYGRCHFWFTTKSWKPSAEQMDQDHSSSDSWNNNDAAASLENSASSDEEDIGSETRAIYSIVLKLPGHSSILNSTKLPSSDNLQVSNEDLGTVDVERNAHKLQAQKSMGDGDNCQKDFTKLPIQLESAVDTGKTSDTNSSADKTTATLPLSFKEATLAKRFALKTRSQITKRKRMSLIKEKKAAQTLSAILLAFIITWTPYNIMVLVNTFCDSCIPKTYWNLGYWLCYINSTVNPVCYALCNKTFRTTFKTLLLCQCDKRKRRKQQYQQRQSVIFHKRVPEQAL
Listing of recorded Rezeptorbindung by entry.

INSERT INTO results (compound, result) VALUES
  ('CCN1CCc2cc(C)sc2C1 [X=S, R₁=CH₃, R₂=H, R₃=H, R₄=Et, R₅=H]', '11,4 µMol'),
  ('CC(C)Cc1cc2c(o1)CN(C)CC2 [X=O, R₁=iso-Bu, R₂=H, R₃=H, R₄=CH₃, R₅=H]', '2,7 µMol'),
  ('Cc1cc2c(s1)CN(C)CC2C (stereo not shown) [X=S, R₁=CH₃, R₂=H, R₃=H, R₄=CH₃, R₅=CH₃]', '34,1 µMol');

**Query** Would you mind telling me what Rezeptorbindung value was observed for CN1CCc2ccsc2C1 [X=S, R₁=H, R₂=H, R₃=H, R₄=CH₃, R₅=H] ?
**Result** >100 µmol

**Query** // query: Cc1cc2c(s1)CNCC2 [X=S, R₁=CH₃, R₂=H, R₃=H, R₄=H, R₅=H]
**Result** >100 µmol

**Query** Input Cc1cc2c(o1)CN(C)CC2 [X=O, R₁=CH₃, R₂=H, R₃=H, R₄=CH₃, R₅=H]
**Result** 24,2 µMol

**Query** Please give the result for Cc1cc2c(s1)CN(C)CC2 [X=S, R₁=CH₃, R₂=H, R₃=H, R₄=CH₃, R₅=H] too.
**Result** 53,1 µMol
